target.of.assay: Sodium channel protein type 5 subunit alpha (Homo sapiens, UniProt Q14524, R814A)
Sequence (Q14524 whole entry R814A): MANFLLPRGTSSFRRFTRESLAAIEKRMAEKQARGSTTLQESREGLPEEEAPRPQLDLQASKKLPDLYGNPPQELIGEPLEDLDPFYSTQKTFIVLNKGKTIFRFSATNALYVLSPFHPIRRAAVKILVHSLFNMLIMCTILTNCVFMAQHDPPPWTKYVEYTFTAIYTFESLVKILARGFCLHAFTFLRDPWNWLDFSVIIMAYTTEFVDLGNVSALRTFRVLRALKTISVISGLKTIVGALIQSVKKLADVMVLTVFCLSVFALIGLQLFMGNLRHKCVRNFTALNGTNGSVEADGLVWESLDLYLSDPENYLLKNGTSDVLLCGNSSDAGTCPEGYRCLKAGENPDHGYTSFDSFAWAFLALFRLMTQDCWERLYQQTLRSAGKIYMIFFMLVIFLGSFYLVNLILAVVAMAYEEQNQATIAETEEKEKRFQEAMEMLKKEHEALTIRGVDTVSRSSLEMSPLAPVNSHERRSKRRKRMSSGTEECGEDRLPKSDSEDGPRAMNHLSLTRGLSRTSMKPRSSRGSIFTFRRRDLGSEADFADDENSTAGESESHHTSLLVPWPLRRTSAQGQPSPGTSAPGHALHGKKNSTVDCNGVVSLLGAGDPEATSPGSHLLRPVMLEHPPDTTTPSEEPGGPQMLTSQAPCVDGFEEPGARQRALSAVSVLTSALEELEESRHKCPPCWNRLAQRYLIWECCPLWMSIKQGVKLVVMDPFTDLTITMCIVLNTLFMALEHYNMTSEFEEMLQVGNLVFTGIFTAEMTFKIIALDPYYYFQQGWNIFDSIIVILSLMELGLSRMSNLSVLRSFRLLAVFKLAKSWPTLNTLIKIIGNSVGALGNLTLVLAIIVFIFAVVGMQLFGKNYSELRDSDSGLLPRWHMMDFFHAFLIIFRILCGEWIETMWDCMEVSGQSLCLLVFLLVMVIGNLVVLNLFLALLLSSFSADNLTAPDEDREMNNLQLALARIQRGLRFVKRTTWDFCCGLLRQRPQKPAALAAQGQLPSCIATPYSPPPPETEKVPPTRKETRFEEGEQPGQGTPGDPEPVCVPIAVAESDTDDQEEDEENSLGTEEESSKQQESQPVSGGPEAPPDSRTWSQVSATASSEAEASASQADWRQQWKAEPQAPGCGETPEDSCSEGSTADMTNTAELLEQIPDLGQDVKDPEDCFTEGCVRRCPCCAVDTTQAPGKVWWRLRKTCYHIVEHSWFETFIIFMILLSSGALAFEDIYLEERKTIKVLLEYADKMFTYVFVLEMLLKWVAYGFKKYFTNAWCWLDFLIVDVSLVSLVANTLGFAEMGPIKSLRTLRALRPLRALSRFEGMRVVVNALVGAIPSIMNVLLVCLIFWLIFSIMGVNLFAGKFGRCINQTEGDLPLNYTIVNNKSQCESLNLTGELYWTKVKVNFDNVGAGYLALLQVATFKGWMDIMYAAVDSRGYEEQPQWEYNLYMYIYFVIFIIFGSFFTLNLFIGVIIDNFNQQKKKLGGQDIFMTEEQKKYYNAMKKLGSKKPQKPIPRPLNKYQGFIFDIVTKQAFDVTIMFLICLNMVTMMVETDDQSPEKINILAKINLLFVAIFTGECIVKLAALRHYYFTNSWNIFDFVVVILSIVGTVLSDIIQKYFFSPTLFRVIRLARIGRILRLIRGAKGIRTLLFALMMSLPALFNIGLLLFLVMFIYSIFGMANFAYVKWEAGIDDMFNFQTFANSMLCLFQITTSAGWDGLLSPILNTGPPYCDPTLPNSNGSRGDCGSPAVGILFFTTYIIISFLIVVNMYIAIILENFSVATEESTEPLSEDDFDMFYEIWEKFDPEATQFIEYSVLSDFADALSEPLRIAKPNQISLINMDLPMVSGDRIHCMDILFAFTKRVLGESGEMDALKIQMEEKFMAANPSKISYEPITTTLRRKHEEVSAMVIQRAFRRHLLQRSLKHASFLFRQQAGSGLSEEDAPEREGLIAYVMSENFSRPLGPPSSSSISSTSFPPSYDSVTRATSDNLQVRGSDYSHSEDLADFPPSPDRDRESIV
measurement.protocol: Inhibition of human Nav1.5 VSD2 R814A mutant by automated voltage clamp electrophysiology
recorded.endpoint: IC50 (nM)

[[record]]
compound = "O=S(=O)(Nc1cccc(F)n1)c1cc(F)c(O[C@H]2CCN(CC(F)(F)F)C[C@@H]2c2ccccc2)cc1F (racemic)"
observed_value = 410


====

target.of.assay: Sodium channel protein type 1 subunit alpha (Homo sapiens, UniProt P35498)
measurement.protocol: Inhibition of human Nav1.1 by V1/2 protocol based analysis
pIC50: −log10 of the molar value.
recorded.endpoint: pIC50

[[record]]
molecule = "O=S(=O)(Nc1cccc(F)n1)c1cc(F)c(O[C@H]2CCN(CC(F)(F)F)C[C@@H]2c2ccc(F)c(F)c2)c(F)c1 (stereo in doubt; (-)-6)"
target_of_assay = "Sodium channel protein type 1 subunit alpha (Homo sapiens, UniProt P35498)"
recorded_endpoint = "pIC50"
observed_value = 7.05


====

target.of.assay: Sodium channel protein type 5 subunit alpha (Homo sapiens)
measurement.protocol: Inhibition of human Nav1.5 by V1/2 protocol based analysis
recorded.endpoint: IC50

[[record]]
molecule = "O=S(=O)(Nc1cccc(F)n1)c1cc(F)c(O[C@H]2CCN(CC(F)(F)F)C[C@@H]2c2ccc(F)c(F)c2)c(F)c1 (stereo in doubt; (-)-6)"
target_of_assay = "Sodium channel protein type 5 subunit alpha (Homo sapiens)"
observed_value = "110 nM"


====

target.of.assay: Sodium channel protein type 1 subunit alpha (Homo sapiens, UniProt P35498)
measurement.protocol: Inhibition of human Nav1.1 by whole cell voltage clamp analysis
recorded.endpoint: IC50

[[record]]
compound = "O=S(=O)(Nc1cccc(F)n1)c1cc(F)c(O[C@H]2CCN(CC(F)(F)F)C[C@@H]2c2ccc(F)c(F)c2)c(F)c1 (stereo in doubt; (-)-6)"
target_of_assay = "Sodium channel protein type 1 subunit alpha (Homo sapiens, UniProt P35498)"
recorded_endpoint = "IC50"
observed_value = "620 nM"


====

measurement.protocol: AUC in FVB mouse at 1 mg/kg, iv
Format: ADME, organism-based
Set-up: dose 1 mg/kg
condition.notes: in vivo
Below, each entry is listed alongside its reported AUC.
recorded.endpoint: AUC

[[record]]
molecule = "O=S(=O)(Nc1cccc(F)n1)c1cc(F)c(O[C@H]2CCN(CC(F)(F)F)C[C@@H]2c2ccc(F)c(F)c2)c(F)c1 (stereo in doubt; (-)-6)"
recorded_endpoint = "AUC"
observed_value = "7.6 µM·h"

[[record]]
molecule = "O=S(=O)(Nc1cccc(F)n1)c1cc(F)c(OC2CCN(CC(F)(F)F)CC2c2ccc(F)c(F)c2)cc1F (single isomer, unassigned; (-))"
recorded_endpoint = "AUC"
observed_value = "16 µM·h"


====

measurement.protocol: Drug uptake in FVB mouse brain at 10 mg/kg, po measured after 2 hrs
Assay type: ADME, organism-based
condition.notes: read-out: Drug uptake
recorded.endpoint: concentration at 2 h (nM)

[[record]]
compound = "O=S(=O)(Nc1cccc(F)n1)c1cc(F)c(OC2CCN(CC(F)(F)F)CC2c2ccc(F)c(F)c2)cc1F (single isomer, unassigned; (-))"
observed_value = 2620

[[record]]
compound = "O=S(=O)(Nc1cccc(F)n1)c1cc(F)c(O[C@H]2CCN(CC(F)(F)F)C[C@@H]2c2ccc(F)c(F)c2)c(F)c1 (stereo in doubt; (-)-6)"
observed_value = 2030

